TARGET OF ASSAY: HLA-A*24 (human)
PROTOCOL TEXT: UV-ligand exchange, anti-b2m ELISA
OBSERVED PROPERTY: peptide exchange yield

- TYTQDFNKF [peptide SEQ ID No 208 …]: 50 to 75%
- YYKSTSSAF [peptide SEQ ID No 218 …]: 50 to 75%
- QYSSVFKSL [peptide SEQ ID No 216 …]: > 75%
- VYWDSAGAAHF [peptide SEQ ID No 202 …]: > 75%
